- Tested on: HepG2
- assay overview: GSK_TCMDC: Percent inhibition of human HepG2 cell line. Test compounds present at 10uM.
- Assay type: functional
Condition met if Inhibition is below 7%. Condition not met if not; exact matches included in Condition not met.

>>> category_label("COc1ccc(CC(=O)Nc2ccc(Nc3nc(C)cc(N(C)C)n3)cc2)cc1")
"Condition not met"
>>> category_label("COc1cccc(-c2ccc(C(=O)NC3CCN(Cc4ccc(C(C)(C)C)cc4)CC3)s2)c1.O=C(O)C(F)(F)F")
"Condition not met"
>>> category_label("Cc1cc(CN2CCC(N3CC(c4ccccc4)(c4ccccc4)OCC3=O)C2)ccc1O.O=C(O)C(F)(F)F (stereo not drawn)")
"Condition met"
>>> category_label("O=C(N[C@H](CC1CCCCC1)C(=O)NC1CCCc2ccccc21)c1ccc(O)c(-c2cccc([N+](=O)[O-])c2)c1 (stereo partly drawn)")
"Condition met"
>>> category_label("CC[C@H](C)CNCc1ccc(OCc2cccc(COc3ccc(CNC[C@@H](C)CC)cc3I)c2)c(I)c1.Cl")
"Condition not met"
>>> category_label("Cc1nc(N)nc(N)c1CCCOc1ccccc1Br")
"Condition not met"
